These measurements were taken from PubChem BioAssay.

# EXPERIMENT DESCRIPTION: binders of probe aFGF10 on microarray, primary screen, stem cell growth factor project, biochemical, small-molecule microarray, fluorescence 635/667 (AID 1071);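 note: score merges 667 nm spot intensity and signal to noise from triplicate slides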
# MEASUREMENT CONTEXT: higher = more signal
The following ranges of composite z-score define the classes used here: LOW = under 0.1, MID = from 0.1 up to 0.5, HIGH = 0.5 and over

For the record C=CCC(OC(C)=O)[C@@H]1[C@@H](N(Cc2cccc3ccccc23)C(=O)c2ccc(C)cc2)c2cc(OCCCO)ccc2N1C(=O)c1ccc(-c2ccccc2)cc1 (stereo not given in full) , report the class its composite z-score corresponds to. MID

Others:
For the record CCCCO[C@H]1C[C@H]2C(Br)=C[C@@]1(CO)C(=O)[C@]21CO1 , report the class its composite z-score corresponds to. LOW

For the record [N-]=[N+]=NCc1ccccc1C[C@]1(C(N)=O)N=C(c2ccc(OCCCO)cc2)O[C@H]1c1ccccc1CN=[N+]=[N-] , report the class its composite z-score corresponds to. HIGH

For the record CO[C@H]1O[C@H](CO)[C@@H](OC(=O)Nc2ccc3c(c2)OCO3)[C@H](OC(=O)Nc2ccccc2)[C@@H]1OC(=O)Nc1ccccc1 , report the class its composite z-score corresponds to. HIGH

For the record O=C1c2ccccc2[C@](Cc2ccccc2I)(C(=O)NCC(F)(F)F)[C@H](c2ccc(CO)cc2)N1Cc1ccccc1C(F)(F)F , report the class its composite z-score corresponds to. MID

For the record CCCNC(=O)[C@@]1(Sc2ccc(C)cc2)CC(=O)N(Cc2ccccc2Cl)[C@@H]1c1ccc(CO)cc1 , report the class its composite z-score corresponds to. MID

---

# SYSTEM NAME: NADPH oxidase 2 (Homo sapiens)
# EXPERIMENT DESCRIPTION: NOX2-dependent H2O2 signal modulators, primary screen, NOX inhibitor project, cell-based, HEK293-NOX2, PMA-stimulated, Amplex Red fluorescence (AID 1159); note: test concentration not given here
# MEASUREMENT CONTEXT: 45 min, higher = more signal, called active from +8 up or from −8 down
The following ranges of z-score define the classes used here: LOW = under 0.1, MEDIUM = from 0.1 up to 1, HIGH = 1 and over

Solved cases (10 shown):
For the record CCOC(=O)C1=CC[C@@H](c2ccc(-c3ccc(OCc4ccccc4)cc3)c(OC)c2)N(S(=O)(=O)c2ccc(C)cc2)[C@H]1c1ccccc1 , report the class its z-score corresponds to. HIGH

For the record C=CCOC(=O)[C@@H]1[C@H]2C(=O)O[C@H](c3ccccc3)[C@H](c3ccccc3)N2[C@H](c2ccc(OCCOC(=O)[C@H]3C[C@H]4C(=O)N5CCC[C@H]5C(=O)N4[C@H]3c3ccc(O)cc3)cc2)[C@@]12C(=O)Nc1ccccc12 , report the class its z-score corresponds to. HIGH

For the record C=CC[C@]1(C(=O)N2CCCCC2)N=C(c2ccc(OCCCO)cc2)O[C@H]1c1ccccc1N=[N+]=[N-] , report the class its z-score corresponds to. LOW

For the record COc1ccc(-c2cc3c(c(-c4ccccc4)n2)[Si](C(C)C)(C(C)C)O[C@H]3c2ccccc2)cn1 , report the class its z-score corresponds to. MEDIUM

For the record C=CC[C@]1(C(=O)NCC(O)CO)N=C(c2ccc(OCCCO)cc2)O[C@H]1c1ccccc1 (stereo not given in full) , report the class its z-score corresponds to. HIGH

For the record CCCC=C(CCC)[C@@H](NS(=O)(=O)c1cccc(C(F)(F)F)c1)c1ccc(C(=O)OC)cc1 , report the class its z-score corresponds to. MEDIUM

For the record Cc1ccc(S[C@]2(C(=O)NCCCN(C)C)CC(=O)N(Cc3ccccc3)[C@@H]2c2ccc(CO)cc2I)cc1 , report the class its z-score corresponds to. LOW

For the record COc1ccc([Si](C)(C)[C@H]2[C@H](CCO)O[C@@]3(C(=O)N(Cc4ccc(N5CCCCC5=O)cc4)c4ccccc43)[C@@H]2C)cc1 , report the class its z-score corresponds to. HIGH

For the record CO[C@H]1O[C@H](CO)[C@@H](OC(=O)CCc2ccccc2)[C@@H]2OC(=O)[C@H](Cc3cccc(Br)c3)C/C=C/C[C@@H](Cc3cccc(Br)c3)C(=O)O[C@@H]12 , report the class its z-score corresponds to. HIGH

For the record CC(=O)NCCCC[C@@H]1NC(=O)[C@@H]2C[C@H](C(=O)NCCCCCNC(=O)CS)[C@H](c3ccc(O)cc3)N2C1=O , report the class its z-score corresponds to. MEDIUM

Others:
For the record C=CC[C@]1(C(=O)O)N=C(c2ccc(OCCCO)cc2)O[C@H]1c1ccccc1 , report the class its z-score corresponds to. LOW

For the record NC(=O)NCC#Cc1ccc2c(c1)[C@]1(C(=O)N2)[C@H](c2ccccc2OCCO)N2[C@H](c3ccccc3)[C@H](c3ccccc3)OC(=O)[C@H]2[C@@H]1C(=O)N1CCN(c2ncccn2)CC1 , report the class its z-score corresponds to. HIGH

For the record C=CCN1C(=O)[C@@]2(Cc3ccccc3)N=C(c3ccc(OCCCO)cc3)O[C@H]2c2ccccc21 , report the class its z-score corresponds to. LOW

For the record O=C1C2C=CC(C(O)c3ccccc3)N(n3cnnc3)C2C(=O)N1Cc1ccccc1 (stereo not given) , report the class its z-score corresponds to. MEDIUM

For the record CC(C)[Si]1(C(C)C)O[C@@H](c2ccccc2)c2cc(C3CC3)nc(-c3ccc(Oc4ccccc4)cc3)c21 , report the class its z-score corresponds to. HIGH

---

Reported composite z-score values for the following compounds.
# SYSTEM NAME: Concanavalin-A (Canavalia ensiformis) (UniProt P02866)
# Sequence (P02866 whole entry, looked up): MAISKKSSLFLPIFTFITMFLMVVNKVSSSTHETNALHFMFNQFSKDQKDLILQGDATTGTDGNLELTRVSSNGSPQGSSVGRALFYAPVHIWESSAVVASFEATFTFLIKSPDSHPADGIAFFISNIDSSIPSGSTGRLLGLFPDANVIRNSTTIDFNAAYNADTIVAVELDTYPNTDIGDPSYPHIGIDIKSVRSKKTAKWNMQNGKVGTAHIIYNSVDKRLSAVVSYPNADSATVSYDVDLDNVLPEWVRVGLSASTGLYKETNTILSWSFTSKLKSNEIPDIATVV
# EXPERIMENT DESCRIPTION: ConA small-molecule binders, primary screen, artefact control for SMM control protein annotation, biochemical, small-molecule microarray, Alexa647 label, 635 nm (AID 1127);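 note: z combines 667 nm emission intensity with signal-to-noise across three replicate slides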
# MEASUREMENT CONTEXT: ConA-A647 binding fluorescence, higher = more signal
Reply with the value as a number alone.

Known results for compounds:
Determine its reported composite z-score: CN1C2C=C(c3ccc(CO)cc3)C(C3C(=O)N(C(N)=O)C(=O)C32)C1c1cccs1 (centres undefined) -0.0029

Determine its reported composite z-score: C[C@]1(C(=O)NCCN2CCOCC2)c2ccccc2C(=O)N(Cc2ccccc2)[C@H]1c1ccc(CO)cc1 0.657

Others:
Determine its reported composite z-score: CO[C@H]1COC(=O)[C@H](C)NC(=O)CC=C[C@@H](C)[C@H](NS(=O)(=O)c2ccc(C)cc2)COC(=O)[C@@H](OCc2ccccc2)C=C[C@@H]1C -0.333

Determine its reported composite z-score: COc1ccc([Si](C)(C)[C@@H]2[C@@H](CCO)O[C@]3(C(=O)N(Cc4ccccc4)c4ccccc43)[C@H]2C)cc1 0.421

---

# EXPERIMENT DESCRIPTION: inhibitors of hydroxyurea-induced Chk1 phosphorylation, primary screen, imaging, HeLa, phospho-Chk1 antibody, percent positive cells (AID 1186)
# MEASUREMENT CONTEXT: hydroxyurea-induced phospho-Chk1 immunofluorescence imaging, higher = more signal
Reported z-score values for the following compounds.
Reply with the value as a number alone.

Known results for compounds:
Determine its reported z-score: CC(=O)NCCCC[C@@H]1NC(=O)[C@@H]2C[C@H](C(=O)NCCCCCCN(C)C)[C@H](c3ccc(O)cc3)N2C1=O 0.313

Determine its reported z-score: O=C1OCC=C[C@H]2OC34C=CCN(Cc5ccccc5)C(=O)[C@H]3N(CCO)C(=O)[C@@H]4[C@@H]12 (stereo partly drawn) 0.373

Determine its reported z-score: O=C(N1CCCCC1)[C@@]1(CCS(=O)(=O)c2ccccc2)N=C(c2ccc(OCCCO)cc2)O[C@H]1c1ccccc1 -0.61

Consider the record given below.
Determine its reported z-score: C=CCC(OC(C)=O)[C@@H]1[C@@H](N(Cc2ccc(-c3ccccc3)cc2)C(=O)c2ccc(C)cc2)c2cc(OCCCO)ccc2N1C(=O)c1ccc(-c2ccccc2)cc1 (stereo partly drawn) 0.0807

---

Reported composite z-score values for the following molecules.
# Tested on: Plasmodium falciparum Sir2 (PF13_0152, Sir2A)
# EXPERIMENT DESCRIPTION: pfSir2 binders on small-molecule microarrays, primary screen, biochemical, small-molecule microarray, 635 nm fluorescence (AID 1098);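 note: score merges spot fluorescence intensity with its signal-to-noise ratio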
# MEASUREMENT CONTEXT: small-molecule microarray binding, fluorescence 635 nm; higher = more signal
Reply with the value as a number alone.

Known results for molecules:
Determine its reported composite z-score: COCCOC(=O)N1C(=O)[C@@]2(c3cc(C#CCNC(N)=O)ccc31)[C@H](C(=O)N1CCCCCCC1)[C@H]1C(=O)O[C@H](c3ccccc3)[C@H](c3ccccc3)N1[C@@H]2c1ccccc1OCCO 0.733

Determine its reported composite z-score: Cc1ccc(S(=O)(=O)N[C@H]2COC(=O)CC=C[C@H](C)COC(=O)N[C@@H](C)C(=O)CC=C[C@@H]2C)cc1 0.38

Others:
Determine its reported composite z-score: C=CCN1C(=O)[C@@]2(Cc3ccccc3)N=C(c3ccc(OCCCO)cc3)O[C@H]2c2ccccc21 1.59

Determine its reported composite z-score: CC(C)[Si]1(C(C)C)O[C@@H](c2ccccc2)c2cc(C3CC3)nc(-c3ccc(Oc4ccccc4)cc3)c21 -1.25
